biological target: CaV1.2^N741W (Homo sapiens, UniProt Q13936, N741W); construct: superfolder GFP (sfGFP) (C); Twin-Strep (C); expressed in transfected cells; host or cells: HEK293T; experiment: whole-cell patch clamp inhibition curves in HEK293T cells, N741W mutant; format: cell-based; settings: IC50 of tetrandrine on CaV1.2^N741W, held at -100 mV, depolarized at +10 mV every 20 s; n = 10
Sequence (Q13936 whole entry N741W): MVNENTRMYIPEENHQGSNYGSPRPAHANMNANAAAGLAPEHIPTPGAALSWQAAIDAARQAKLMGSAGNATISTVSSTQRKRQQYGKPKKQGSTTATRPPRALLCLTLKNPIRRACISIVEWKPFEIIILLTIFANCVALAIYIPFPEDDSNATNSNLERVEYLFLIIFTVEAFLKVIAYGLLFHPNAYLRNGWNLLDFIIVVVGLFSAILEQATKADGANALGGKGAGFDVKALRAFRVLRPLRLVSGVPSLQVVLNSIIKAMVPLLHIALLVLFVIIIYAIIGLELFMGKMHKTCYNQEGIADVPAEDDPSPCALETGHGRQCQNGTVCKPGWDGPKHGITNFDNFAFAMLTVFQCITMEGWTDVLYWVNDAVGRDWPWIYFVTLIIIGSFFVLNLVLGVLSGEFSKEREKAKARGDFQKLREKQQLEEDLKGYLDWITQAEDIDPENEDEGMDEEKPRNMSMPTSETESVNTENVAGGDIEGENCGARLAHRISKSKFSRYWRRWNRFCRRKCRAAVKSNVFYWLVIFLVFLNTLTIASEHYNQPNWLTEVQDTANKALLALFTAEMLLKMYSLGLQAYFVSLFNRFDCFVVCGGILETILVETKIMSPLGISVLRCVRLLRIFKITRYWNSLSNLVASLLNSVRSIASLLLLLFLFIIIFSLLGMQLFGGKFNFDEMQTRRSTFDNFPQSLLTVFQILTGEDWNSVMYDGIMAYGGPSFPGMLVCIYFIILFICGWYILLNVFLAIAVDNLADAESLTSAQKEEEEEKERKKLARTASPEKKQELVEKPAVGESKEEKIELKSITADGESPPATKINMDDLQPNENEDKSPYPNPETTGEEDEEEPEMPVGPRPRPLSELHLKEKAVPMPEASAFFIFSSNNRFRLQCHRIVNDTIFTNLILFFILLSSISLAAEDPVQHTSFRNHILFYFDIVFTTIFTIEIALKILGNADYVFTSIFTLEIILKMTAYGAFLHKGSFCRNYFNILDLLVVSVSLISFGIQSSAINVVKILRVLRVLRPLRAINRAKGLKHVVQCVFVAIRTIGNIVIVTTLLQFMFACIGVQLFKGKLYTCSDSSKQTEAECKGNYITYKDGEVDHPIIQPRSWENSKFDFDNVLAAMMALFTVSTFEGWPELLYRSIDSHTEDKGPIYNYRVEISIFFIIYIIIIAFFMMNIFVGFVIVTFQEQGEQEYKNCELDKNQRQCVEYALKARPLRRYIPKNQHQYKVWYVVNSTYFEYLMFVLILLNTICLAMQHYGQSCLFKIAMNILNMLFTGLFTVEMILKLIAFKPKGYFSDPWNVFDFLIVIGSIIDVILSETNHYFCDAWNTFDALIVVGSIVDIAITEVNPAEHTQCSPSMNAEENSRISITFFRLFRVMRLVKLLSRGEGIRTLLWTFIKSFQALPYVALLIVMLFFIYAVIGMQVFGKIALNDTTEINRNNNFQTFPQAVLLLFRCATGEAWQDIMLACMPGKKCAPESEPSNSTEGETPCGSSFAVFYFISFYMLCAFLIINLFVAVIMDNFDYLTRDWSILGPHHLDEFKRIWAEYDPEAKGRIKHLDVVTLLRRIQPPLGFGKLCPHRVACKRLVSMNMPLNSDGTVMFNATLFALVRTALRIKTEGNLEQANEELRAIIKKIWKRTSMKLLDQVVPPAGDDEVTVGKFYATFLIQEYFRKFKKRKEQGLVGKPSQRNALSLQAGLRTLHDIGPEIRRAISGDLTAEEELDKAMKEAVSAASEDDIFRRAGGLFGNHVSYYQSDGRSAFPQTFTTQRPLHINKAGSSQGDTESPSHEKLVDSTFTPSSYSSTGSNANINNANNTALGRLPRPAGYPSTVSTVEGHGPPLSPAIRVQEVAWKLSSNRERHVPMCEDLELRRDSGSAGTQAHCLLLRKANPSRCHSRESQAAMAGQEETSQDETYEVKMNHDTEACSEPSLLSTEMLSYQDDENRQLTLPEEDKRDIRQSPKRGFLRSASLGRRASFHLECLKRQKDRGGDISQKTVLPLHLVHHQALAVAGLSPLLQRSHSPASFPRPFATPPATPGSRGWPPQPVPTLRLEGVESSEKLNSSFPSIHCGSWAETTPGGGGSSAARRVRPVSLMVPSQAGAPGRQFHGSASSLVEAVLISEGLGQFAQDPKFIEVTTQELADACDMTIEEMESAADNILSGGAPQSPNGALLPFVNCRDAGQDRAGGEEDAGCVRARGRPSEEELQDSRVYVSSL
Sequence (P54289 25-946 partner limits assumed): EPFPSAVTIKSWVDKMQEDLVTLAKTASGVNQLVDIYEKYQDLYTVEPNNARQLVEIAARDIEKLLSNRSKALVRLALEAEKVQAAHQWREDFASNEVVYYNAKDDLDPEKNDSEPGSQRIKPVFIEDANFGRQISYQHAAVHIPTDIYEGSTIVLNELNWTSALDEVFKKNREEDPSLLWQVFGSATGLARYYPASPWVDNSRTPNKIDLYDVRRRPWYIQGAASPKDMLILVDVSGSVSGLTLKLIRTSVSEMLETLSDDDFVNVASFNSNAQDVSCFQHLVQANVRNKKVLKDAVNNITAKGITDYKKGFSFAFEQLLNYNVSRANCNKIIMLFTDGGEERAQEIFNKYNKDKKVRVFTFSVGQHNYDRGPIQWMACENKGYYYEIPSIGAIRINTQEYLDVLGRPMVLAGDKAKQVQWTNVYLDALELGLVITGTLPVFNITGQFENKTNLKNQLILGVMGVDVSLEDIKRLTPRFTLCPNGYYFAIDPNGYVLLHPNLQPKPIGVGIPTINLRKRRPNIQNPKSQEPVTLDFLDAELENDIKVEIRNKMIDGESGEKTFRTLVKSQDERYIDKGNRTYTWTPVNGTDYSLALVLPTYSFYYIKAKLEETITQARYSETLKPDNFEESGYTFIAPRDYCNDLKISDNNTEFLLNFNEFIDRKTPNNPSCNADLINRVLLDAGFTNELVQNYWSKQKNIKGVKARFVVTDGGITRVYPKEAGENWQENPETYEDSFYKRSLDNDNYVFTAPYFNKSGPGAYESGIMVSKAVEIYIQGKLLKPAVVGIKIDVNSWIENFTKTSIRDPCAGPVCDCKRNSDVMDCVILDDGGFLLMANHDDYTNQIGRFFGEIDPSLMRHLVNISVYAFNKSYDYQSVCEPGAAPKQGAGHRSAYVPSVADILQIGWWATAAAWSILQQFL
Sequence (P54289 947-1103 partner limits assumed): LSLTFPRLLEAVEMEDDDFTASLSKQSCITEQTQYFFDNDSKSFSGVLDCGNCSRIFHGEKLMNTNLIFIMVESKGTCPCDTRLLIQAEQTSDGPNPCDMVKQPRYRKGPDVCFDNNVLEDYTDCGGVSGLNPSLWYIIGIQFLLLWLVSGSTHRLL
Sequence (Q08289 1-606 isoform Q08289-3 partner): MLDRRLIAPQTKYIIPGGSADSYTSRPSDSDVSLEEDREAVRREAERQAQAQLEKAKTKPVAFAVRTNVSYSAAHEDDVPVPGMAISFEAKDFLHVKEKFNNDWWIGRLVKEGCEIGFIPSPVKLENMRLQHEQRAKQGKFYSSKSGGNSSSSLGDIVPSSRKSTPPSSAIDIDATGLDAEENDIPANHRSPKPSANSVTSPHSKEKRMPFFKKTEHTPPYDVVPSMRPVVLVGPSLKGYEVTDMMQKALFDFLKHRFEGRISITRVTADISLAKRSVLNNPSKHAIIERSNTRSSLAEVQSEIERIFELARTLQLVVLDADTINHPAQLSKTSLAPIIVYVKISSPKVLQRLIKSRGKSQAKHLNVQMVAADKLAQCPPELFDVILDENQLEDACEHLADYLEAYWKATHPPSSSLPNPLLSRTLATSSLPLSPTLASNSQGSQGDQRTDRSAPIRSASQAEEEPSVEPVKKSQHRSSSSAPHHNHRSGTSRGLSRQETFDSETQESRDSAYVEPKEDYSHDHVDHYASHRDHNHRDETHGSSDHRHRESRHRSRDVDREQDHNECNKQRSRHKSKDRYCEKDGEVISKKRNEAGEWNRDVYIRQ
Measurement type: IC50

[ask] Give the value of IC50 reported for the following: "COc1ccc2cc1Oc1ccc(cc1)C[C@H]1c3cc(c(OC)cc3CCN1C)Oc1c(OC)c(OC)cc3c1[C@H](C2)N(C)CC3"
[reply] 71.3 nM
